Below, each entry is listed with its recorded Percent Effect.
Target: Arginase-2, mitochondrial (Homo sapiens)
Test: in vitro enzyme assay to detect the production of urea directly proportional to the activity of Arginase II; note: in the data most compounds retested in dose-response had high values
Type: functional
Design: scale not given: direction of the effect not stated beside the values
Settings: 33.3 µM
Give just the number in %; leave the unit off.

CC(C)c1nnc2n1CCN(CCCS(=O)(=O)c1ccccc1)C2    -4.27
Cc1c(C2CCCN(C(=O)C3CC3)C2)n2c(nc1=O)CCC2 (stereo not drawn)    0.232
Cc1nnc(NCc2cccnc2N(C)C)c(C#N)c1C    -4.25
O=C(CSC1=NS(=O)(=O)c2cc(F)ccc2N1)c1ccc(Cl)cc1    4.52
Cc1ccc(C#N)c(N2CCC(c3nccn3Cc3cscn3)CC2)n1    9.38
Cc1cnn(CC2CCCCN2CC(=O)NCc2ccccn2)c1 (stereo not drawn)    -1.18
CCC(C(=O)NCc1ccncc1)N(c1ccc(OC)cc1)S(C)(=O)=O (stereo not drawn)    3.65
Cc1cnn(CC(C)NCc2ccc(S(C)(=O)=O)cc2)c1 (stereo not drawn)    -3.23
CC(=O)Nc1ccc(-n2ccc3nc(N4CCCC4)ncc3c2=O)cc1    0.88
Cc1ncoc1C(=O)N1C[C@H]2CCC[C@@]2(COCC2CCOCC2)C1    1.59

I have this compound here, CCc1noc(C(C)N2CCN(Cc3nc(C)c(C)o3)CC2)n1 (stereo not drawn) , and I need its recorded Percent Effect. -0.766

Moving on to the next compound: c1cc(OCc2ccc3c(c2)OCCO3)ccc1CNC1CC1 -5.92

Moving on to the next compound: CC(C)Oc1ncccc1CNC(=O)N1CCC(C(N)=O)C1 (stereo not drawn) 2.68

###

Biological target: Chromo domain-containing protein 1 (Saccharomyces cerevisiae (strain ATCC 204508 / S288c) (Baker's yeast))
Assay: ScCHD-1 Enzyme Inhibition Assay; note: in the data most compounds retested in dose-response had high values
Format: functional
Set-up: scale not given: direction of the effect not stated beside the values
Settings: 30 µM
PARAMETER: Percent Effect (%)
Give just the number in %; leave the unit off.

Consider the worked cases shown below.
CC(Cn1ccnc1)NC(=O)NCCc1ccccn1 (configuration not stated)    -8.97
Cc1nc(CN2CCOC(CNc3cccnn3)C2)oc1C (configuration not stated)    -0.197

I have this compound here, Cc1cc(C(F)(F)F)nn1C(C)C(=O)Nc1ccncc1 (configuration not stated) , and I need its recorded Percent Effect. -9.26

Moving on to the next compound: O=C(NCc1cc[nH]n1)NCC(c1ccccc1Cl)N1CCCC1 (configuration not stated) -1.7

Moving on to the next compound: O=C(c1cnccn1)N1CCc2onc(CN3CCOCC3)c2C1 -5.16

Moving on to the next compound: Cc1cc(N2CCN(Cc3ccc(-c4cc[nH]n4)o3)CC2)cc(C)n1 -5.59

Moving on to the next compound: CCCN(CC1COc2ccccc2O1)C(=O)CCn1cncn1 (configuration not stated) -2.23

###

System: Trypanosoma cruzi
Experiment: Trypanosoma cruzi phosphomannomutase and mannose-1-phosphate guanylyltransferase assay
Assay type: functional
Design: scale not given: direction of the effect not stated beside the values
Conditions: 10 µM
PARAMETER: Percent Effect (%)
Give just the number in %; leave the unit off.

Consider the worked cases shown below.
CC(C)COCC1CN(Cc2ccc3c(c2)OCO3)Cc2ncn(C)c21 (configuration not stated)    -1.17
O=S(=O)(Cc1ccccc1)NCc1ccco1    0.68
O=C(c1ccncc1F)N1CCc2ncnc(-c3ccncc3)c2CC1    -5.38
CNS(=O)(=O)c1ccc(C(=O)NC2CCOc3ccccc32)o1 (configuration not stated)    0.682
O=S(=O)(NC1=NCN(CCc2cccs2)CN1)c1ccc(F)cc1    -4.91
CN(C)S(=O)(=O)N1CCC(Oc2ccc(C#N)cn2)CC1    3.25

API: the following record is the query input.
I have this compound here, CN1C(=O)CC(c2cnn(C)c2)C12CCN(C(=O)C1CC=CC1)CC2 (configuration not stated) , and I need its recorded Percent Effect. -2.25

###

Target: AMP-activated protein kinase, AMPK (Homo sapiens) (UniProt P54646+O43741+P54619+Q9UGJ0+Q9Y478+Q13131+Q9UGI9)
Assay: AMP-dependent Kinase enzyme assay. An in vitro enzyme assay that detects ADP turnover that is directly proportional to AMPK activity. This uses naive AMPK that is activated during the assay with MK-8722
Assay type: functional
Set-up: scale not given: direction of the effect not stated beside the values
Conditions: 30 µM
Below, each entry is listed with its recorded Percent Effect.
Give just the number in %; leave the unit off.

CC(C)(C)c1cnc(CN2CCCC2Cn2cccn2)o1 (stereo unspecified)    6.71
Cc1cc(C(=O)N2CCc3nnc(N)cc3C2)c(C)n1-c1cccnc1    -58.5

I have this compound here, COCCN1C[C@@H]2CN(Cc3ccsc3)CCC[C@]2(C(=O)O)C1 , and I need its recorded Percent Effect. 4.76

Moving on to the next compound: CCOC[C@H]1CC[C@H]2[C@H](CCN2C(=O)c2ccncc2F)O1 3.1

Moving on to the next compound: CCCNC(=O)Cn1nc(C(C)C)c2cnn(C(C)(C)C)c2c1=O -13.9

Moving on to the next compound: Cc1cc(F)c(S(=O)(=O)NCCCN2CCC(O)CC2)cc1F 5.04

###

Target: Tyrosyl-tRNA synthetase, putative (Trypanosoma cruzi (strain CL Brener)) (UniProt Q4DSP6)
Sequence (whole entry): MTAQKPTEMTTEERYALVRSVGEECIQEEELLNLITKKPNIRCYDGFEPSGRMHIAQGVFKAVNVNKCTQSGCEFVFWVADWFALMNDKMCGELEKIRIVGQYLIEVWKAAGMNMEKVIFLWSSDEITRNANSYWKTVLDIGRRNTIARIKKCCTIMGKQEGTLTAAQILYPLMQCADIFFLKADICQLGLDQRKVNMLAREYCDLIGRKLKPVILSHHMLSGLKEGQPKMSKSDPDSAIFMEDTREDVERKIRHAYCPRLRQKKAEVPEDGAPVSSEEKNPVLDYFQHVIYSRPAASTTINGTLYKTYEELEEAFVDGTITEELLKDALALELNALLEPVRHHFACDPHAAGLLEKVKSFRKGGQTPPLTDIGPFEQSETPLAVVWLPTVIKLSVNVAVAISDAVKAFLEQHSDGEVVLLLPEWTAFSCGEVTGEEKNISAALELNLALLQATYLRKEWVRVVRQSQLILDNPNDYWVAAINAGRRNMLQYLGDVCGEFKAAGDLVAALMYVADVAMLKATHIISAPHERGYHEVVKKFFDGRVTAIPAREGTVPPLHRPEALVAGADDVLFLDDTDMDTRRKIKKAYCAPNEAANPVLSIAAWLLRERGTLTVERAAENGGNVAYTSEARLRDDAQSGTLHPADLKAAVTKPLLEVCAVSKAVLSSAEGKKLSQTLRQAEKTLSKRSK
Assay: Trypanosoma cruzi tyrosyl tRNA synthetase (TcYRS) SOP
Format: functional
Parameters: scale not given: direction of the effect not stated beside the values
Settings: 30 µM
Below, each entry is listed with its recorded Percent Effect.
Give just the number in %; leave the unit off.

Consider the worked cases shown below.
Cc1cccc(CN2CCc3c(nc(N4CCCCC4C)[nH]c3=O)C2)n1 (stereo not drawn)    9.09
CCc1nnc(CN(C)c2nc(C3CCCC3)nc3c2cnn3C)o1    7.69

I have this compound here, CC(O)CN1CCN(C(=O)c2cccn2Cc2ccncc2)CC1 (stereo not drawn) , and I need its recorded Percent Effect. 13.9

Moving on to the next compound: CCCOc1ccc(NC(=O)NCCC(=O)N(C)C)cc1Cl 12.5

Moving on to the next compound: C=C(C)CN(Cc1cccc(O)c1)C1CCC(O)CC1 (stereo not drawn) 6.17

Moving on to the next compound: Cc1cccc(-c2noc(CN3CCC(N4CCNC4=O)CC3)n2)c1 12.2

Moving on to the next compound: CCc1c(C(=O)N2CCCN(C(C)=O)CC2)cnn1C(C)(C)C 25.9

Moving on to the next compound: CCCc1noc(CN2CCCC2c2ccsc2)n1 (stereo not drawn) 1.27

Moving on to the next compound: COc1ccc(C2=C(C)C(N3CCc4ccccc43)=NS2(=O)=O)cc1 8.97

Moving on to the next compound: Cc1ccoc1C(=O)N1C[C@@H]2[C@@H](C1)OCC(=O)N2Cc1cccnc1 -47.4

###

Biological target: Proteasome subunit beta (Trypanosoma cruzi) (UniProt O96673)
Sequence (O96673 as listed by the source): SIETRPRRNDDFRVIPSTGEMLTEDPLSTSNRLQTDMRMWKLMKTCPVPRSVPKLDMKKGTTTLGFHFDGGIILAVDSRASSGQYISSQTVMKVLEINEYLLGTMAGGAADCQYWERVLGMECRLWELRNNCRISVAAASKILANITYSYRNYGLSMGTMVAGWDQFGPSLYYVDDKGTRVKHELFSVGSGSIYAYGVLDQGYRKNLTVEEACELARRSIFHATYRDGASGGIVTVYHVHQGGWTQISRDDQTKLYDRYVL
Test: Trypanosoma cruzi proteasome chymotrypsin-like activity (TcProtChymo) assay. Note: in the data most compounds retested in dose-response had high values.
Type: functional
Set-up: scale not given: direction of the effect not stated beside the values
Details: 9.37 µM
PARAMETER: Percent Effect
// unit must come after the numeric part

I have this compound here, CC(C)c1n[nH]c(C2CN(C(=O)c3cccc4cn[nH]c34)CCO2)n1 (configuration not stated) , and I need its recorded Percent Effect. 4.32%

Moving on to the next compound: CN(C)Cc1nnc(C2CCN(c3nccc(N)n3)CC2)n1C1CC1 8.42%

Moving on to the next compound: O=C1N(Cc2cccc(F)c2F)CCCC1(O)CNC1CCCC1 (configuration not stated) 4.36%

Moving on to the next compound: CC(C)S(=O)(=O)N1CCC(c2cc3n(n2)[C@@H](C(F)(F)F)C[C@@H](C)N3)C1 (some centres not stated) 5.02%

Moving on to the next compound: CCOC(=O)c1sc2ccsc2c1CNC(=O)CC 1.44%
